Reference source: PubChem BioAssay (EPA / NIEHS)

# target-entity: Cellular tumor antigen p53 (Homo sapiens) (UniProt P04637)
# Sequence (P04637 whole entry, looked up): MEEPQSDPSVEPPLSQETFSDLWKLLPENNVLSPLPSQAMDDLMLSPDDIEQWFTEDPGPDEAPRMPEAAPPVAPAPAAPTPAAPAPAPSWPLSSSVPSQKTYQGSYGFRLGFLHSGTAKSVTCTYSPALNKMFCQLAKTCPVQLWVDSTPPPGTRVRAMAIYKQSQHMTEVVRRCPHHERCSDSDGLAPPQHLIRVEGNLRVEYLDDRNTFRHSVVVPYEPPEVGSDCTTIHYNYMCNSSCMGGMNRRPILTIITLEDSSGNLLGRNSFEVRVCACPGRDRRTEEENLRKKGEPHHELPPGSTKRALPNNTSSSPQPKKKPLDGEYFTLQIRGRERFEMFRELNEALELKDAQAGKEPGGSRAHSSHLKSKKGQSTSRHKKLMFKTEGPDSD
# test-description: ATG_p53_CIS: Attagene CIS-FACTORIAL HepG2 Assay for human p53 Transcription Factor (AID 2282994)
# protocol-conditions: HepG2 p53 cis-element reporter, Attagene mRNA; actives raise or lower the signal
The source made the active and inactive calls. Rule for the calls: active = hit-call score of the fitted dose curve at least 0.9, where 1 is the maximum; inactive = score below 0.9.
attribute-measured: outcome

// worked examples, outcome included
| compound | attribute-measured | result |
| --- | --- | --- |
| CCSC(=O)N1CCCCCC1 | outcome | inactive |
| CC1(C)CCC(=Cc2ccc(Cl)cc2)C1(O)Cn1cncn1 (stereo not drawn) | outcome | inactive |
| O=c1n(Cl)c(=O)n(Cl)c(=O)n1Cl | outcome | inactive |
| CC(C)C1(C)N=C(c2ncccc2C(=O)O)NC1=O (stereo not drawn) | outcome | inactive |
| O=C1C2CC=CCC2C(=O)N1SC(Cl)(Cl)Cl (stereo not drawn) | outcome | inactive |

Ask: Would you mind telling me what outcome value was observed for COc1cc(Cl)c(OC)cc1Cl ?
Result: inactive

Ask: One more compound: CN/C(=N\[N+](=O)[O-])NCc1cnc(Cl)s1
Result: inactive

Ask: Quick one: CCOc1nc(C(Cl)(Cl)Cl)ns1
Result: inactive

Ask: Same question for CSC(=O)c1c(C(F)F)nc(C(F)(F)F)c(C(=O)SC)c1CC(C)C please.
Result: inactive

Ask: Do the same for Cc1cc(C)nc(Nc2ccccc2)n1 please
Result: inactive

Ask: Try CCN(CC)C(=O)C(C)Oc1cccc2ccccc12 (stereo not drawn) next.
Result: inactive

Ask: Field entry: CS(=O)(=O)c1ccc(C(=O)C2C(=O)CCCC2=O)c([N+](=O)[O-])c1
Result: inactive

Ask: Repeat for the following compound: Cc1c(COC(=O)[C@@H]2[C@H](/C=C(\Cl)C(F)(F)F)C2(C)C)cccc1-c1ccccc1
Result: inactive

====

# Read-out: xenobiotic metabolism (CYP1A2), CYP1A2 (gene 1544)
# test-description: CLD_CYP1A2_48hr: CellzDirect (CLD) Gene Expression Assay for xenobiotic metabolism (CYP1A2) at 48 hours (AID 2283703)
Results filed as inconclusive are left out. Calls of active or inactive are those of the source. How the source made its calls: active means hit-call score of the fitted dose curve at least 0.9, where 1 is the maximum; inconclusive means response in the unintended direction; inactive means score below 0.9.
// classify into active, inactive

Consider the worked cases shown below.
| compound | qualitative-label |
| --- | --- |
| CCCCOCN(C(=O)CCl)c1c(CC)cccc1CC | active |
| CC(C)N1C(=O)c2ccccc2NS1(=O)=O | inactive |
| CCOc1nc(F)cc2nc(S(=O)(=O)Nc3c(Cl)cccc3Cl)nn12 | inactive |
| CC1(C)C(C=C(Cl)Cl)C1C(=O)OC(C#N)c1cccc(Oc2ccccc2)c1 (configuration not stated) | active |
| Nc1c(Cl)c(F)nc(OCC(=O)O)c1Cl | inactive |

Ask: Called result for OC(c1ccc(Cl)cc1)(c1ccc(Cl)cc1)C(Cl)(Cl)Cl
Result: inactive

Ask: Param item: CCNP(=S)(OC)O/C(C)=C/C(=O)OC(C)C (configuration not stated)
Result: active

Ask: Query CCCC(=NOCC)C1=C(O)CC(CC(C)SCC)CC1=O (configuration not stated) next
Result: inactive

Ask: Repeat for the following compound: COCc1cnc(C2=NC(C)(C(C)C)C(=O)N2)c(C(=O)O)c1 (configuration not stated)
Result: inactive

Ask: Consider next the compound O=c1n(Cl)c(=O)n(Cl)c(=O)n1Cl in the same way.
Result: inactive

Ask: What do you have for CC(C)(C)C(=O)C(Oc1ccc(Cl)cc1)n1cncn1 (configuration not stated) ?
Result: active

Ask: Please give the result for COC(=O)NS(=O)(=O)c1ccc(N)cc1 too.
Result: inactive

====

# test-description: CLD_ACTIN_6hr: CellzDirect (CLD) Gene Expression Assay for Baseline Control (Actin) at 6 hours (AID 2283676);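 note: active means increased actin mRNA relative to DMSO vehicle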
Inconclusive results are not listed. Calls of active or inactive are those of the source. How the source made its calls: active means hit-call score of the fitted dose curve at least 0.9, where 1 is the maximum; inconclusive means response in the unintended direction; inactive means score below 0.9.
attribute-measured: outcome

| molecule | attribute-measured | result |
| --- | --- | --- |
| CCCCC(C#N)(Cn1cncn1)c1ccc(Cl)cc1 (stereo not drawn) | outcome | inactive |
| CC1(C)CON(Cc2ccccc2Cl)C1=O | outcome | inactive |
| Cn1c(-c2ccccc2)cc(-c2ccccc2)[n+]1C | outcome | inactive |

====

# Read-out: Ezrin (EZR), EZR (gene 7430)
# test-description: LTEA_HepaRG_EZR: Life Technologies and Expression Analysis (LTEA) Assay for Ezrin (EZR) using HepaRG (AID 2283491)
# protocol-conditions: mRNA level, 48 h; actives raise or lower the signal
Calls of active or inactive are those of the source. How the source made its calls: active means hit-call score of the fitted dose curve at least 0.9, where 1 is the maximum; inactive means score below 0.9.
The categories you may choose from are class 1 for active, class 0 for inactive

Solved cases (5 shown):
| molecule | qualitative-label |
| --- | --- |
| CN/C(=N\[N+](=O)[O-])NCc1cnc(Cl)s1 | class 0 |
| CCC(C)n1c(=O)[nH]c(C)c(Br)c1=O (stereo not drawn) | class 0 |
| CO/N=C(/C1=NOCCO1)c1ccccc1Oc1ncnc(Oc2ccccc2Cl)c1F | class 1 |
| COCC(=O)N(c1c(C)cccc1C)C(C)C(=O)OC (stereo not drawn) | class 0 |
| CCCCC(C#N)(Cn1cncn1)c1ccc(Cl)cc1 (stereo not drawn) | class 0 |

Ask: Write down the call the test reported for this molecule. Item: C=CCOC(=O)C(C)(C)OC(=O)c1cc(-n2c(=O)cc(C(F)(F)F)n(C)c2=O)ccc1Cl
Result: class 0

Ask: Next: COC(=O)NS(=O)(=O)c1ccc(N)cc1
Result: class 0

Ask: # repeat for O=C(Nc1ccccc1-c1ccc(Cl)cc1)c1cccnc1Cl
Result: class 0

====

# Read-out: Interleukin-1 alpha (IL1a), IL1A (gene 3552)
# test-description: BSK_KF3CT_IL1a: BioMAP Diversity Plus: KF3CT Assay for Interleukin-1 alpha (IL1a) Biomarker Activity (AID 2283070)
# protocol-conditions: primary human keratinocytes with fibroblasts; actives raise or lower the signal
The source made the active and inactive calls. Rule for the calls: active = hit-call score of the fitted dose curve at least 0.9, where 1 is the maximum; inactive = score below 0.9.
attribute-measured: outcome

Solved cases (5 shown):
| compound | outcome |
| --- | --- |
| COCC(=O)N(c1c(C)cccc1C)C(C)C(=O)OC (stereo unspecified) | inactive |
| CC(C)Nc1nc(Cl)nc(NC(C)C)n1 | inactive |
| C=C(C)CN(CC)c1c([N+](=O)[O-])cc(C(F)(F)F)cc1[N+](=O)[O-] | inactive |
| CCCN(CC)CC1COC2(CCC(C(C)(C)C)CC2)O1 (stereo unspecified) | inactive |
| CCOc1nc(F)cc2nc(S(=O)(=O)Nc3c(Cl)cccc3Cl)nn12 | inactive |

Now examine the next entry.
Ask: So what does the record say about outcome for COCC(C)N(C(=O)CCl)c1c(C)csc1C (stereo unspecified) ?
Result: inactive

====

# System: Sodium/Iodide Symporter (NIS), SLC5A5 (gene 6528)
# test-description: CPHEA_Stoker_NIS_Inhibition_RAIU: CPHEA's Radioactive Iodide Uptake (RAIU) Assay for Sodium/Iodide Symporter (NIS) Inhibition, Stoker and Laws Labs (AID 2283841)
Results filed as inconclusive are left out. Activity calls are given as the source filed them. Rule for the calls: active = hit-call score of the fitted dose curve at least 0.9, where 1 is the maximum; inconclusive = response in the unintended direction; inactive = score below 0.9.
Please answer using one outcome listed in active, inactive

Worked cases, answers included:
| compound | target-entity | qualitative-label |
| --- | --- | --- |
| CC(C)N1C(=O)N(c2ccccc2)CSC1=NC(C)(C)C | Sodium/Iodide Symporter (NIS), SLC5A5 (gene 6528) | active |
| CSC(=O)c1c(C(F)F)nc(C(F)(F)F)c(C(=O)SC)c1CC(C)C | Sodium/Iodide Symporter (NIS), SLC5A5 (gene 6528) | inactive |
| CO/N=C(/C1=NOCCO1)c1ccccc1Oc1ncnc(Oc2ccccc2Cl)c1F | Sodium/Iodide Symporter (NIS), SLC5A5 (gene 6528) | active |
| CCOc1nc(F)cc2nc(S(=O)(=O)Nc3c(Cl)cccc3Cl)nn12 | Sodium/Iodide Symporter (NIS), SLC5A5 (gene 6528) | inactive |
| CCCCC(O)(Cn1cncn1)c1ccc(Cl)cc1Cl (stereo unspecified) | Sodium/Iodide Symporter (NIS), SLC5A5 (gene 6528) | inactive |

For the next question, use this compound.
Ask: Please indicate how the test categorized CCOP(=O)(OCC)Oc1nc(Cl)c(Cl)cc1Cl .
Result: inactive

====

# Read-out: Paternally Expressed 10 (PEG10), PEG10 (gene 23089)
# test-description: LTEA_HepaRG_PEG10: Life Technologies and Expression Analysis (LTEA) Assay for Paternally Expressed 10 (PEG10) using HepaRG (AID 2283520)
# protocol-conditions: mRNA level, 48 h; actives raise or lower the signal
Activity calls are given as the source filed them. Rule for the calls: active = hit-call score of the fitted dose curve at least 0.9, where 1 is the maximum; inactive = score below 0.9.
Outcome field: choose from Yes (active), No (inactive)

| compound | qualitative-label |
| --- | --- |
| CS(=O)(=O)c1cc(C(F)(F)F)ccc1C(=O)c1cnoc1C1CC1 | No |
| CN=C=S | No |
| Cc1ccc(N=CN(C)C=Nc2ccc(C)cc2C)c(C)c1 | No |

Ask: Per the assay record, what outcome was assigned to OC(c1ccc(Cl)cc1)(c1ccc(Cl)cc1)C(Cl)(Cl)Cl ?
Result: No

Ask: Then COCC(=O)N(c1c(C)cccc1C)C(C)C(=O)OC (configuration not stated) ?
Result: No

Ask: What about this compound? CN/C(=N\[N+](=O)[O-])NCc1cnc(Cl)s1
Result: No

Ask: What about this compound? O=C1C2CC=CCC2C(=O)N1SC(Cl)(Cl)Cl (configuration not stated)
Result: No

Ask: Input CCSC(=O)N1CCCCCC1
Result: No

Ask: Same lookup for CO/N=C(/C1=NOCCO1)c1ccccc1Oc1ncnc(Oc2ccccc2Cl)c1F , please.
Result: Yes

Ask: What do you get for CC(C)(C)C(=O)C(Oc1ccc(Cl)cc1)n1cncn1 (configuration not stated) ?
Result: No

Ask: Now this one: CCNP(=S)(OC)O/C(C)=C/C(=O)OC(C)C (configuration not stated)
Result: No

Ask: Field entry: COCc1cnc(C2=NC(C)(C(C)C)C(=O)N2)c(C(=O)O)c1 (configuration not stated)
Result: No
